// data source = PubChem BioAssay AID1845200

test system: ASPS-1 complex tumor spheroids, viability; experiment: Anticancer human tumor ASPS-1 cell line growth inhibition; settings: second compound 1 µM; first compound 3 µM; active = viability on the fitted dose curve at most 10% of control; inactive = the rest;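 note: spheroids exposed to agents for 7 days after 3 days of growth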
Outcomes: active, inactive

compound	qualitativeLabel
Cc1sc2c(c1C)C(c1ccc(Cl)cc1)=NC(CC(=O)Nc1ccc(O)cc1)c1nnc(C)n1-2 (centres undefined) + Cn1nnc2c(C(N)=O)ncn2c1=O	inactive
Cn1ncnc1[C@H]1c2n[nH]c(=O)c3cc(F)cc(c23)N[C@@H]1c1ccc(F)cc1 + Cn1nnc2c(C(N)=O)ncn2c1=O	inactive
CNCc1ccc(-c2cc(-c3nc(-c4ccc(S(=O)(=O)C(C)C)cc4)cnc3N)on2)cc1 + Cn1nnc2c(C(N)=O)ncn2c1=O	active
O=C(c1cc(Cc2n[nH]c(=O)c3ccccc23)ccc1F)N1CCN(C(=O)C2CC2)CC1 + Cn1nnc2c(C(N)=O)ncn2c1=O	inactive

###

tested on: ASPS-1 complex tumor spheroids, viability; experiment: Anticancer human tumor ASPS-1 cell line growth inhibition; conditions: second compound 10 µM; first compound 0.949 µM; stronger effect = lower value;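 note: spheroids exposed to agents for 7 days after 3 days of growth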;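 for viability, T/C: 100% = DMSO vehicle treated spheroids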

molecule	viability, T/C (%)
O=C(c1cc(Cc2n[nH]c(=O)c3ccccc23)ccc1F)N1CCN(C(=O)C2CC2)CC1 + Cn1nnc2c(C(N)=O)ncn2c1=O	82.8
Cn1ncnc1[C@H]1c2n[nH]c(=O)c3cc(F)cc(c23)N[C@@H]1c1ccc(F)cc1 + Cn1nnc2c(C(N)=O)ncn2c1=O	71.7
Cc1sc2c(c1C)C(c1ccc(Cl)cc1)=NC(CC(=O)Nc1ccc(O)cc1)c1nnc(C)n1-2 (centres undefined) + Cn1nnc2c(C(N)=O)ncn2c1=O	97.5
CNCc1ccc(-c2cc(-c3nc(-c4ccc(S(=O)(=O)C(C)C)cc4)cnc3N)on2)cc1 + Cn1nnc2c(C(N)=O)ncn2c1=O	30.4

###

viability, T/C overview
tested on: ASPS-1 complex tumor spheroids, viability; test: Anticancer human tumor ASPS-1 cell line growth inhibition; settings: second compound 0.0949 µM; first compound 0.0949 µM; stronger effect = lower value;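 note: spheroids exposed to agents for 7 days after 3 days of growth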;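 for viability, T/C: 100% = DMSO vehicle treated spheroids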

compound	displayUnit	viability, T/C
Cn1ncnc1[C@H]1c2n[nH]c(=O)c3cc(F)cc(c23)N[C@@H]1c1ccc(F)cc1 + CC[C@@]1(O)C(=O)OCc2c1cc1n(c2=O)Cc2cc3c(CN(C)C)c(O)ccc3nc2-1	%	43.5
CNCc1ccc(-c2cc(-c3nc(-c4ccc(S(=O)(=O)C(C)C)cc4)cnc3N)on2)cc1 + CC[C@@]1(O)C(=O)OCc2c1cc1n(c2=O)Cc2cc3c(CN(C)C)c(O)ccc3nc2-1	%	41.8
Cc1sc2c(c1C)C(c1ccc(Cl)cc1)=NC(CC(=O)Nc1ccc(O)cc1)c1nnc(C)n1-2 (centres undefined) + CC[C@@]1(O)C(=O)OCc2c1cc1n(c2=O)Cc2cc3c(CN(C)C)c(O)ccc3nc2-1	%	77.2
O=C(c1cc(Cc2n[nH]c(=O)c3ccccc23)ccc1F)N1CCN(C(=O)C2CC2)CC1 + CC[C@@]1(O)C(=O)OCc2c1cc1n(c2=O)Cc2cc3c(CN(C)C)c(O)ccc3nc2-1	%	45.8

###

tested on: ASPS-1 complex tumor spheroids, viability; test: Anticancer human tumor ASPS-1 cell line growth inhibition; conditions: second compound 94.9 pM; first compound 0.949 µM; stronger effect = lower value;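 note: spheroids exposed to agents for 7 days after 3 days of growth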;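 for viability, T/C: 100% = DMSO vehicle treated spheroids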

molecule	viability, T/C, %
Cn1ncnc1[C@H]1c2n[nH]c(=O)c3cc(F)cc(c23)N[C@@H]1c1ccc(F)cc1 + COc1cc2c(cc1O)CCNC21CSC2c3c(OC(C)=O)c(C)c4c(c3C(COC1=O)N1C(O)C3Cc5cc(C)c(OC)c(O)c5C(C21)N3C)OCO4	88.8
O=C(c1cc(Cc2n[nH]c(=O)c3ccccc23)ccc1F)N1CCN(C(=O)C2CC2)CC1 + COc1cc2c(cc1O)CCNC21CSC2c3c(OC(C)=O)c(C)c4c(c3C(COC1=O)N1C(O)C3Cc5cc(C)c(OC)c(O)c5C(C21)N3C)OCO4	108
Cc1sc2c(c1C)C(c1ccc(Cl)cc1)=NC(CC(=O)Nc1ccc(O)cc1)c1nnc(C)n1-2 (centres undefined) + COc1cc2c(cc1O)CCNC21CSC2c3c(OC(C)=O)c(C)c4c(c3C(COC1=O)N1C(O)C3Cc5cc(C)c(OC)c(O)c5C(C21)N3C)OCO4	93.4
CNCc1ccc(-c2cc(-c3nc(-c4ccc(S(=O)(=O)C(C)C)cc4)cnc3N)on2)cc1 + COc1cc2c(cc1O)CCNC21CSC2c3c(OC(C)=O)c(C)c4c(c3C(COC1=O)N1C(O)C3Cc5cc(C)c(OC)c(O)c5C(C21)N3C)OCO4	48.3

###

tested on: ASPS-1 complex tumor spheroids, viability; test: Anticancer human tumor ASPS-1 cell line growth inhibition; details: curve of first compound; second compound 100 µM;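 note: spheroids exposed to agents for 7 days after 3 days of growth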
pIC50: −log10 of the molar value.
Measured pIC50 values are reported for all entries that follow.

compound	pIC50
Cc1cc(C)c(CNC(=O)c2cc(-c3ccc(CN4CCOCC4)cc3)cc3c2cnn3C2CCCC2)c(=O)[nH]1 + Cn1nnc2c(C(N)=O)ncn2c1=O	< 5.00
Cn1ncnc1[C@H]1c2n[nH]c(=O)c3cc(F)cc(c23)N[C@@H]1c1ccc(F)cc1 + Cn1nnc2c(C(N)=O)ncn2c1=O	< 5.52
COc1cc(C)[nH]c(=O)c1CN1CCc2c(Cl)cc(C(OC)C3COC3)c(Cl)c2C1=O (stereo unspecified) + Cn1nnc2c(C(N)=O)ncn2c1=O	< 5.00
CC1COCCN1c1cc(-c2ccnn2C)c2ccnc(-c3ccn[nH]3)c2n1 (stereo unspecified) + Cn1nnc2c(C(N)=O)ncn2c1=O	> 7.50
Cc1sc2c(c1C)C(c1ccc(Cl)cc1)=NC(CC(=O)Nc1ccc(O)cc1)c1nnc(C)n1-2 (stereo unspecified) + Cn1nnc2c(C(N)=O)ncn2c1=O	< 5.52
[2H]c1nc(C)nc([2H])c1-c1cc(NC[C@@H](C)c2cccc3c(C(=O)NC)ccnc23)ncn1 + Cn1nnc2c(C(N)=O)ncn2c1=O	< 5.00
